target: human PD-L1 (Homo sapiens (Human), UniProt Q9NZQ7); assay: T cell activation luciferase reporter cell culture system (T Cell Activation Assay); assay type: cell-based; conditions: luciferase reporter assay; PD-L1 aAPC/CHO-K1 cells with PD-1 effector Jurkat T cells
Sequence (Q9NZQ7 19-290): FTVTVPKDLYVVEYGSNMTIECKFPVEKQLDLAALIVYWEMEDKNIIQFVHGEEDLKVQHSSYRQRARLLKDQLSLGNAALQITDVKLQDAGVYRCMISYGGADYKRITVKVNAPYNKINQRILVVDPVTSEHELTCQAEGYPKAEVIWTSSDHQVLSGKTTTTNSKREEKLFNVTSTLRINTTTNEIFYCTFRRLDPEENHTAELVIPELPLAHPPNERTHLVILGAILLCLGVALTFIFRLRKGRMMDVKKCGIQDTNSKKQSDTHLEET
measurement_kind: EC50

| structure | system | reported_value |
| --- | --- | --- |
| COc1cc(-c2nccc(-c3cccc(-c4ccc(CNC5CCSCC5)c(OC)n4)c3Cl)c2Cl)ccc1CNC1CCSCC1 | human PD-L1 (Homo sapiens (Human), UniProt Q9NZQ7) | 195 nM |
| COc1cc(-c2nccc(-c3cccc(-c4ccc(CNC[C@@H]5CCC(=O)N5)c(OC)n4)c3Cl)c2Cl)ccc1CNC1CC2(C1)CN(C(C)=O)C2 | human PD-L1 (Homo sapiens (Human), UniProt Q9NZQ7) | 22.1 nM |
| COc1cc(-c2nccc(-c3cccc4c3CC[C@@H]4Oc3nc(OC)c(CNC[C@@H]4CCC(=O)N4)cc3C(F)(F)F)c2Cl)ccc1CNC[C@@H]1CCC(=O)N1 | human PD-L1 (Homo sapiens (Human), UniProt Q9NZQ7) | 5.54 nM |
| COc1cc(-c2nccc(-c3cccc(-c4ccc(CNC[C@@H]5CCC(=O)N5)c(OC)n4)c3Cl)c2Cl)cc2c1CNCC2 | human PD-L1 (Homo sapiens (Human), UniProt Q9NZQ7) | 53.5 nM |
| COc1nc(-c2cccc(-c3ccnc(-c4cc(OC)c5nc(CNC[C@@H](C)O)nn5c4)c3Cl)c2Cl)ccc1CNC1CCN(C(C)=O)CC1 | human PD-L1 (Homo sapiens (Human), UniProt Q9NZQ7) | 94.9 nM |
| COc1nc(-c2cccc(-c3nccc(-c4ccc(CN5CCC(O)CC5)c(OC)n4)c3Cl)c2Cl)ccc1CN1CCC(O)CC1 | human PD-L1 (Homo sapiens (Human), UniProt Q9NZQ7) | 16.9 nM |
| COc1cc(-c2nccc(-c3cccc(-c4ccc(CN5CC6(CNC(=O)C6)C5)c(OC)n4)c3Cl)c2Cl)ccc1CN[C@H]1CC[C@H](O)CC1 | human PD-L1 (Homo sapiens (Human), UniProt Q9NZQ7) | 28.9 nM |
| COc1cc(-c2nccc(-c3cccc(-c4ccc5c(CN(C)CCO)cn(C)c5n4)c3Cl)c2Cl)ccc1CNC[C@@H]1CCC(=O)N1 | human PD-L1 (Homo sapiens (Human), UniProt Q9NZQ7) | 31 nM |
| COc1nc(-c2cccc(-c3ccnc(-c4cc(OC)c5nc(CN6CC7(CNC(=O)C7)C6)cn5c4)c3Cl)c2Cl)ccc1CNC[C@@H]1CCC(=O)N1 | human PD-L1 (Homo sapiens (Human), UniProt Q9NZQ7) | 69.2 nM |
| COc1cc(-c2nccc(-c3cccc(NC(=O)c4ccc(CNCCO)cn4)c3Cl)c2Cl)ccc1CNC1CCOCC1 | human PD-L1 (Homo sapiens (Human), UniProt Q9NZQ7) | 16.7 nM |
| COc1cc(-c2nccc(-c3cccc(NC(=O)c4ccc(CNC5CCN(C(C)=O)CC5)cn4)c3C)c2Cl)ccc1CNC1CCN(C(C)=O)CC1 | human PD-L1 (Homo sapiens (Human), UniProt Q9NZQ7) | 1410 nM |
| COc1nc(-c2cccc(-c3ccnc(-c4ccc5c(c4)CNC5)c3Cl)c2Cl)ccc1CNC[C@H](C)O | human PD-L1 (Homo sapiens (Human), UniProt Q9NZQ7) | 387 nM |
| COc1cc(-c2nccc(-c3cccc(-c4ccc(CNC[C@@H]5CCC(=O)N5)c(OC)n4)c3C(F)(F)F)c2Cl)ccc1CNC[C@@H]1CCC(=O)N1 | human PD-L1 (Homo sapiens (Human), UniProt Q9NZQ7) | 2110 nM |

---

biological target: human PD-L1 (Homo sapiens (Human)); assay: T cell activation luciferase reporter cell culture system (T Cell Activation Assay); format: cell-based; conditions: luciferase reporter assay; PD-L1 aAPC/CHO-K1 cells with PD-1 effector Jurkat T cells
# note: boundary value 30 nM maps to N; EC50 below it maps to Y

| structure | system | cat |
| --- | --- | --- |
| COC(=O)CN1CCc2cc(-c3nccc(-c4cccc(-c5ccc(CNC[C@@H]6CCC(=O)N6)c(OC)n5)c4Cl)c3Cl)cc(OC)c2C1 | human PD-L1 (Homo sapiens (Human)) | N |
| COc1cc(-c2nccc(-c3cccc(-c4ccc(CNC[C@@H]5CCC(=O)N5)c(OC)n4)c3Cl)c2Cl)cc2c1CN(CC1CCN(C(C)=O)CC1)CC2 | human PD-L1 (Homo sapiens (Human)) | Y |
| COc1cc(-c2nccc(-c3cccc(-c4ccc(CNC5CCN(CCO)CC5)c(OC)n4)c3Cl)c2Cl)ccc1CNC1CCN(CCO)CC1 | human PD-L1 (Homo sapiens (Human)) | Y |
| COc1cc(-c2nccc(-c3cccc(-c4ccc(CNC[C@@H]5CCC(=O)N5)c(OC)n4)c3Cl)c2Cl)ccc1CN1CCC(NC(C)=O)CC1 | human PD-L1 (Homo sapiens (Human)) | Y |
| COc1nc(-c2ccnc(-c3cccc4c3CC[C@@H]4Nc3nc(OC)c(CN4CC5(CNC(=O)C5)C4)nc3C(F)(F)F)c2Cl)ccc1CN1CC2(CNC(=O)C2)C1 | human PD-L1 (Homo sapiens (Human)) | N |
| COc1cc(-c2nccc(-c3cccc(-c4ccc(CN5CC6(CNC(=O)C6)C5)c(OC)n4)c3Cl)c2Cl)ccc1CN1CC2(C1)CN(C(C)=O)C2 | human PD-L1 (Homo sapiens (Human)) | Y |

---

Measured pIC50, listed per entry for reference.
target: PD-L1 His protein / PD-1 Fc protein (Homo sapiens (Human)); assay: HTRF Assay (PD-1/PD-L1 interaction); assay type: binding; details: PD-L1 His 6 nM, PD-1 Fc 6 nM
Sequence (Q9NZQ7 19-238): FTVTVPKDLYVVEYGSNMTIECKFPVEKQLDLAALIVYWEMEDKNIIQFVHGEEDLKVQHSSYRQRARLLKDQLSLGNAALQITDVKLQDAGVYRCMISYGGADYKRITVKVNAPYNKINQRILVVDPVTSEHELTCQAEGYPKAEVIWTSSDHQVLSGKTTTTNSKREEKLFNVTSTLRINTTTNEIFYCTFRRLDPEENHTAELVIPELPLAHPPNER
pIC50: −log10 of the molar value.

| structure | pIC50 |
| --- | --- |
| COc1nc(-c2ccnc(-c3cccc4c3CC[C@@H]4Nc3nc(OC)c(CN4CC5(C4)CN(C(C)=O)C5)nc3C(F)(F)F)c2Cl)ccc1CN1CC2(C1)CN(C(C)=O)C2 | 8.30 |
| COc1nc(-c2cccc(-c3nccc(-c4ccc(CNC5CCN(C(C)=O)CC5)c(OC)n4)c3Cl)c2Cl)ccc1CNC1CCN(C(C)=O)CC1 | 9.72 |
| COc1cc(-c2nccc(-c3cccc4c3CCC[C@@H]4Nc3nc(OC)c(CN4CC5(CNC(=O)C5)C4)cc3C(F)(F)F)c2Cl)ccc1CNC[C@@H]1CCC(=O)N1 | 6.23 |
| COc1cc(-c2nccc(-c3cccc(-c4ccc(CN5CCN(C(C)=O)CC5)c(OC)n4)c3Cl)c2Cl)ccc1CN1CCN(C(C)=O)CC1 | 8.02 |
| COc1cc(-c2nccc(-c3cccc(-c4ccc5c(CNC6CCOCC6)cn(C)c5n4)c3Cl)c2Cl)ccc1CNC1CCN(C(C)=O)CC1 | 8.91 |
| COc1nc(-c2cccc(-c3ccnc(-c4cc(OC)c5nc(CN6CC7(CCC(=O)N7)C6)cn5c4)c3Cl)c2Cl)ccc1CNC[C@@H]1CCC(=O)N1 | 9.64 |
| CNCc1ccc(-c2cccc(-c3ccnc(-c4cc(CNCC56CC(C(=O)O)(C5)C6)cc(OC)c4)c3Cl)c2Cl)nc1OC | 8.06 |
| COc1nc(-c2cccc(-c3ccnc(-c4cnc5cc(CNC[C@@H]6CCC(=O)N6)ccc5c4)c3Cl)c2Cl)ccc1CNC[C@@H]1CCC(=O)N1 | 9.70 |
| COc1nc(-c2cccc(-c3ccnc(-c4cc(OC)c5nc(CNC(C)C)nn5c4)c3Cl)c2Cl)ccc1CNC(C)C | 9.60 |
| COc1cc(-c2ncnc(-c3cccc(-c4ccc(CNC[C@@H]5CCC(=O)N5)c(OC)n4)c3Cl)c2Cl)ccc1CNC[C@@H]1CCC(=O)N1 | 9.54 |
| COCC(=O)N1CCC(NCc2ccc(-c3nccc(-c4cccc(-c5ccc(CNC6CCN(C(=O)COC)CC6)c(OC)n5)c4C(F)(F)F)c3Cl)cc2OC)CC1 | 7.38 |
| Cc1c(NC(=O)c2ccc(CNC[C@@H]3CCC(=O)N3)cn2)cccc1-c1ccnc(-c2ccc(CNC[C@@H]3CCC(=O)N3)c(OC(F)F)c2)c1Cl | 9.28 |

---

Overview of recorded pEC50 for various compounds
target: human PD-L1 (Homo sapiens (Human)); assay: T cell activation luciferase reporter cell culture system (T Cell Activation Assay); type: cell-based; conditions: luciferase reporter assay; PD-L1 aAPC/CHO-K1 cells with PD-1 effector Jurkat T cells
pEC50: −log10 of the molar value.

| compound | system | qual | pEC50 |
| --- | --- | --- | --- |
| COc1cc(-c2nccc(-c3cccc4c3CC[C@@H]4Oc3nc(OC)c(CN4CC5(CNC(=O)C5)C4)cc3C(F)(F)F)c2Cl)cc(F)c1CN1CC2(CNC(=O)C2)C1 [Example 306] | human PD-L1 (Homo sapiens (Human)) | = | 6.44 |
| COc1cc(-c2nccc(-c3cccc(-c4ccc(CNC[C@@H]5CCC(=O)N5)c(OC)n4)c3Cl)c2Cl)ccc1CNC1(C(=O)OC(C)C)CC1 [Compound 135] | human PD-L1 (Homo sapiens (Human)) | ≤ | 5.00 |
| COc1nc(-c2cncc(-c3cccc(NC(=O)c4cn(C)c(=O)n(C)c4=O)c3Cl)c2Cl)ccc1CNC1CCN(C(C)=O)CC1 [Compound 723] | human PD-L1 (Homo sapiens (Human)) | = | 5.73 |
| COc1cc(-c2nccc(-c3cccc(-c4ccc(CN5CC[C@H](C(=O)O)C5)c(OC)n4)c3Cl)c2Cl)ccc1CNC1CCN(C(C)=O)CC1 [Example 388] | human PD-L1 (Homo sapiens (Human)) | = | 7.41 |
| COc1nc(-c2cccc(-c3ccnc(-c4cc5c(=O)n(C)c(CN6CC(C)(O)C6)nn5c4)c3Cl)c2Cl)ccc1CNC(C)C [Example 233] | human PD-L1 (Homo sapiens (Human)) | ≤ | 5.00 |
| COc1nc(-c2cncc(-c3cccc(NC(=O)c4cn(C)c(=O)n(C)c4=O)c3Cl)c2Cl)ccc1CN1CC2(C1)CN(C(C)=O)C2 [Compound 730] | human PD-L1 (Homo sapiens (Human)) | = | 5.96 |

These entries and their values trace back to patent US20240246964A1.
